Give IC50 for every item shown.
- target.under.test: wt human TYK2, catalytic site (Homo sapiens, UniProt P29597)
- Construct: wt human TYK2, catalytic site
- Sequence (P29597 897-1176 limits assumed): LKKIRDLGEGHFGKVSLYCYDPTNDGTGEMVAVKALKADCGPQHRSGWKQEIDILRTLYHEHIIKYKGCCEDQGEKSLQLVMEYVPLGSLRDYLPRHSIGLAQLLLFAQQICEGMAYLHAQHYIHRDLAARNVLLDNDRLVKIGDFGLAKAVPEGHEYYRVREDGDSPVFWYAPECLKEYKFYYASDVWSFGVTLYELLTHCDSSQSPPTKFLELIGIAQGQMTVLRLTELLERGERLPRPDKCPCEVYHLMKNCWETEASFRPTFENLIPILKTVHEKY
- assay.overview: HTRF KinEASE assay, TYK2
- measurement.conditions: 1 μM ATP; read-out: IC50, Activity Toward TYK2

Which IC50 is reported for this molecule? NC(=O)c1nn(-c2c(Cl)cccc2Cl)nc1Nc1ccc(C(=O)N2CC(F)(F)C(F)(F)C2)cn1 100 to 1000 nM

Which IC50 is reported for this molecule? CCNC(=O)c1ccc(Nc2cn(-c3c(F)cccc3F)nc2C(N)=O)cn1 100 to 1000 nM

Which IC50 is reported for this molecule? NC(=O)c1nn(-c2c(Cl)cccc2Cl)cc1Nc1ccc(-c2nnc3ccccn23)cc1 < 10 nM

Which IC50 is reported for this molecule? NC(=O)c1nn(-c2c(Cl)cccc2Cl)cc1Nc1ccc(-c2nncn2C2CCCC2)cc1 10 to 100 nM

Which IC50 is reported for this molecule? CCn1cnnc1-c1ccc(Nc2cn(-c3c(Cl)ccc(F)c3Cl)nc2C(N)=O)cc1 10 to 100 nM

Which IC50 is reported for this molecule? CN1CCCN(C(=O)c2ccc(Nc3cn(-c4c(Cl)cccc4Cl)nc3C(N)=O)nc2)CC1 100 to 1000 nM

Which IC50 is reported for this molecule? Cn1ccc(Oc2ccc(Nc3cn(-c4c(Cl)cccc4Cl)nc3C(N)=O)cc2)n1 10 to 100 nM

* * *

Give IC50 for every item shown.
- target.under.test: wt human JAK1, catalytic site (Homo sapiens, UniProt P23458)
- Construct: wt human JAK1, catalytic site
- Sequence (P23458 875-1153 limits assumed): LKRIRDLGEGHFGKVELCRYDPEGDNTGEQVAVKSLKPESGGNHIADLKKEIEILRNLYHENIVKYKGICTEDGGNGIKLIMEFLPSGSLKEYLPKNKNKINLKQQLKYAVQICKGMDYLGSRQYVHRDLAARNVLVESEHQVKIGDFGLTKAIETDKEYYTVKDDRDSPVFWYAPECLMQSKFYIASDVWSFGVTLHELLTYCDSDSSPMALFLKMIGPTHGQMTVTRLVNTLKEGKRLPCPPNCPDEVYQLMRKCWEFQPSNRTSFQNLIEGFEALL
- assay.overview: HTRF KinEASE assay, JAK1
- measurement.conditions: 2.5 μM ATP; read-out: IC50, Activity Toward JAK1

Which IC50 is reported for this molecule? Cc1cccc2nnc(-c3ccc(Nc4cn(-c5c(Cl)cccc5Cl)nc4C(N)=O)cn3)n12 [compound 388] 10 to 100 nM

Which IC50 is reported for this molecule? NC(=O)c1nn(-c2c(Cl)cccc2Cl)cc1Nc1ccc(-c2nnc3ccccn23)cc1 [compound 333] 10 to 100 nM

Which IC50 is reported for this molecule? Cc1cc(C)n(-c2ccc(Nc3cn(-c4c(Cl)cccc4Cl)nc3C(N)=O)cn2)n1 [compound 398] 100 to 1000 nM

Which IC50 is reported for this molecule? NC(=O)c1nn(-c2c(Cl)cccc2Cl)cc1Nc1ccc(C(=O)N2CCCC2)cn1 [compound 226] 100 to 1000 nM

Which IC50 is reported for this molecule? NC(=O)c1nn(-c2c(Cl)cccc2Cl)cc1Nc1cnn(CC(=O)N2CCOCC2)c1 [compound 461] 10 to 100 nM

* * *

Give pIC50 for every item shown.
- target.under.test: wt human JAK1, catalytic site (Homo sapiens, UniProt P23458)
- Construct: wt human JAK1, catalytic site
- assay.overview: HTRF KinEASE assay, JAK1
- measurement.conditions: 2.5 μM ATP; read-out: IC50, Activity Toward JAK1
pIC50: −log10 of the molar value.

Which pIC50 is reported for this compound? CC(F)(F)c1nnnn1-c1ccc(Nc2cn(-c3c(Cl)cccc3Cl)nc2C(N)=O)cn1 6.00 to 7.00

Which pIC50 is reported for this compound? NC(=O)c1nn(-c2c(F)cccc2F)cc1Nc1ccc(C(=O)N2CCOCC2)nc1 6.00 to 7.00

Which pIC50 is reported for this compound? CC(C)n1ncnc1-c1ccc(Nc2cn(-c3c(F)cccc3Cl)nc2C(N)=O)cc1 6.00 to 7.00

Which pIC50 is reported for this compound? Cc1cnnn1-c1ccc(Nc2cn(-c3c(Cl)cccc3Cl)nc2C(N)=O)cc1 7.00 to 8.00

Which pIC50 is reported for this compound? Cn1ncc(Nc2cn(-c3c(Cl)cccc3Cl)nc2C(N)=O)n1 6.00 to 7.00

Which pIC50 is reported for this compound? NC(=O)c1nn(-c2c(Cl)cccc2Cl)nc1Nc1ccc(C(=O)NCCF)cc1 > 8.00

Which pIC50 is reported for this compound? NC(=O)c1nn(-c2c(Cl)cccc2Cl)cc1Nc1ccc(-c2nnc3cccc(C(F)(F)F)n23)nc1 6.00 to 7.00

Which pIC50 is reported for this compound? NC(=O)c1nn(-c2c(Cl)ccc(F)c2Cl)nc1Nc1ccc(C(=O)N2CC[C@@H](F)C2)cc1 > 8.00

* * *

Give pIC50 for every item shown.
- target.under.test: wt human TYK2, catalytic site (Homo sapiens, UniProt P29597)
- Construct: wt human TYK2, catalytic site
- assay.overview: HTRF KinEASE assay, TYK2
- measurement.conditions: 1 μM ATP; read-out: IC50, Activity Toward TYK2
pIC50: −log10 of the molar value.

Which pIC50 is reported for this compound? NC(=O)c1nn(-c2c(Cl)cccc2Cl)nc1Nc1ccc(N2CCOCC2)cn1 [compound 143] 6.00 to 7.00

Which pIC50 is reported for this compound? COCc1ncnn1-c1ccc(Nc2cn(-c3c(Cl)cccc3Cl)nc2C(N)=O)cc1 [compound 300] 7.00 to 8.00

Which pIC50 is reported for this compound? CC(C)(C)NC(=O)c1ccc(Nc2cn(-c3c(Cl)cccc3Cl)nc2C(N)=O)cc1F [compound 28] 7.00 to 8.00

Which pIC50 is reported for this compound? NC(=O)c1nn(-c2c(Cl)cccc2Cl)cc1Nc1ccc(C(=O)N2CCSCC2)cc1 [compound 467] > 8.00

Which pIC50 is reported for this compound? NC(=O)c1nn(-c2c(Cl)cccc2Cl)cc1Nc1ccc(-n2ncnc2CO)cc1 [compound 348] > 8.00

Which pIC50 is reported for this compound? CCn1cnnc1-c1ccc(Nc2cn(-c3c(Cl)cccc3Cl)nc2C(N)=O)cc1 [compound 87] > 8.00

Which pIC50 is reported for this compound? NC(=O)c1nn(-c2c(F)cccc2Cl)cc1Nc1ccc(C(=O)N2CCOCC2)cn1 [compound 68] 7.00 to 8.00

Which pIC50 is reported for this compound? NC(=O)c1nn(-c2c(Cl)cccc2Cl)cc1Nc1ccc(C(=O)N2CCCCC2)cc1 [compound 82] 7.00 to 8.00

Which pIC50 is reported for this compound? CC(C)n1cnnc1-c1ccc(Nc2cn(-c3c(Cl)cccc3Cl)nc2C(N)=O)cn1 [compound 400] 7.00 to 8.00

Which pIC50 is reported for this compound? COCCCNC(=O)c1ccc(Nc2nn(-c3c(Cl)cccc3Cl)nc2C(N)=O)cc1 [compound 119] 7.00 to 8.00

Which pIC50 is reported for this compound? NC(=O)c1nn(-c2c(Cl)cccc2Cl)nc1Nc1ccc(C(=O)N2CC[C@@H](F)C2)cc1 [compound 106] > 8.00

* * *

- target.under.test: wt human TYK2, catalytic site (Homo sapiens, UniProt P29597)
- Construct: wt human TYK2, catalytic site
- assay.overview: HTRF KinEASE assay, TYK2
- measurement.conditions: 1 μM ATP; read-out: IC50, Activity Toward TYK2
Give IC50 for every item shown.

Query the reported IC50 for wt human TYK2, catalytic site (Homo sapiens, UniProt P29597); item: Cc1cccc2nnc(-c3ccc(Nc4cn(-c5c(Cl)cccc5Cl)nc4C(N)=O)cn3)n12 10 to 100 nM

Query the reported IC50 for wt human TYK2, catalytic site (Homo sapiens, UniProt P29597); item: NC(=O)c1nn(-c2c(Cl)cccc2Cl)cc1Nc1ccc(-c2ccnnc2)cc1 10 to 100 nM

Query the reported IC50 for wt human TYK2, catalytic site (Homo sapiens, UniProt P29597); item: CCc1cnnn1-c1ccc(Nc2cn(-c3c(Cl)cccc3Cl)nc2C(N)=O)cc1 < 10 nM

Query the reported IC50 for wt human TYK2, catalytic site (Homo sapiens, UniProt P29597); item: CCn1cc(C(F)(F)F)nc1-c1ccc(Nc2cn(-c3c(Cl)cccc3Cl)nc2C(N)=O)cc1 10 to 100 nM

Query the reported IC50 for wt human TYK2, catalytic site (Homo sapiens, UniProt P29597); item: Cn1nnnc1-c1ccc(Nc2nn(-c3c(Cl)cccc3Cl)nc2C(N)=O)nc1 10 to 100 nM

Query the reported IC50 for wt human TYK2, catalytic site (Homo sapiens, UniProt P29597); item: NC(=O)c1nn(-c2c(Cl)cccc2Cl)cc1Nc1ccc(C(=O)N2CC(F)C2)cc1 < 10 nM

Query the reported IC50 for wt human TYK2, catalytic site (Homo sapiens, UniProt P29597); item: NC(=O)c1nn(-c2c(F)cccc2Cl)cc1Nc1ccc(C(=O)NC2CCCNC2)cc1 (centres unmarked) 10 to 100 nM

Query the reported IC50 for wt human TYK2, catalytic site (Homo sapiens, UniProt P29597); item: Cc1cc(Nc2cn(-c3c(Cl)cccc3Cl)nc2C(N)=O)cnc1-n1cccn1 100 to 1000 nM

Query the reported IC50 for wt human TYK2, catalytic site (Homo sapiens, UniProt P29597); item: NC(=O)c1nn(-c2c(Cl)cccc2Cl)nc1Nc1ccc(CC(=O)N2CCOCC2)nc1 100 to 1000 nM

Query the reported IC50 for wt human TYK2, catalytic site (Homo sapiens, UniProt P29597); item: NC(=O)c1nn(-c2c(Cl)cccc2Cl)nc1Nc1ccc(-n2cc3c(n2)CCOC3)cc1 100 to 1000 nM

Query the reported IC50 for wt human TYK2, catalytic site (Homo sapiens, UniProt P29597); item: NC(=O)c1nn(-c2c(Cl)cccc2Cl)cc1Nc1ccc(C(=O)N2CC[C@@H](N)C2)cc1 10 to 100 nM

Query the reported IC50 for wt human TYK2, catalytic site (Homo sapiens, UniProt P29597); item: CCc1cnncc1-c1ccc(Nc2cn(-c3c(Cl)cccc3Cl)nc2C(N)=O)cn1 10 to 100 nM

Query the reported IC50 for wt human TYK2, catalytic site (Homo sapiens, UniProt P29597); item: CC1(C)CN(C(=O)c2ccc(Nc3cn(-c4c(Cl)cccc4Cl)nc3C(N)=O)nc2)C1 100 to 1000 nM

Query the reported IC50 for wt human TYK2, catalytic site (Homo sapiens, UniProt P29597); item: NC(=O)c1nn(-c2c(Cl)cccc2Cl)nc1Nc1ccc(C(=O)N2CC(F)C2)cn1 10 to 100 nM

Query the reported IC50 for wt human TYK2, catalytic site (Homo sapiens, UniProt P29597); item: NC(=O)c1nn(-c2c(Cl)cccc2Cl)cc1Nc1cnc(C(=O)N2CC[C@@H](F)C2)cn1 100 to 1000 nM

Query the reported IC50 for wt human TYK2, catalytic site (Homo sapiens, UniProt P29597); item: Cc1ccnnc1-c1ccc(Nc2cn(-c3c(F)cccc3Cl)nc2C(N)=O)cc1 10 to 100 nM

Query the reported IC50 for wt human TYK2, catalytic site (Homo sapiens, UniProt P29597); item: CC(C)(C)NC(=O)c1ccc(Nc2cn(-c3c(F)cccc3Cl)nc2C(N)=O)cc1F 10 to 100 nM

Query the reported IC50 for wt human TYK2, catalytic site (Homo sapiens, UniProt P29597); item: NC(=O)c1nn(-c2c(Cl)ccc(F)c2F)nc1Nc1ccc(C(=O)N2CC[C@@H](F)C2)cc1 10 to 100 nM

Query the reported IC50 for wt human TYK2, catalytic site (Homo sapiens, UniProt P29597); item: NC(=O)c1nn(-c2c(Cl)cccc2Cl)nc1Nc1ccc(-n2ncc3c2CCOC3)cc1 10 to 100 nM

Query the reported IC50 for wt human TYK2, catalytic site (Homo sapiens, UniProt P29597); item: NC(=O)c1nn(-c2c(Cl)cccc2Cl)cc1Nc1ccc(C(=O)N2CC[C@H](F)C2)nc1 10 to 100 nM

Query the reported IC50 for wt human TYK2, catalytic site (Homo sapiens, UniProt P29597); item: CCn1cnnc1-c1ccc(Nc2cn(-c3c(F)cccc3Cl)nc2C(N)=O)cc1 < 10 nM

Query the reported IC50 for wt human TYK2, catalytic site (Homo sapiens, UniProt P29597); item: Cc1ncn(C)c1-c1ccc(Nc2cn(-c3c(Cl)cccc3Cl)nc2C(N)=O)cc1 100 to 1000 nM

Query the reported IC50 for wt human TYK2, catalytic site (Homo sapiens, UniProt P29597); item: CN(C)[C@H]1CCN(C(=O)c2ccc(Nc3cn(-c4c(Cl)cccc4Cl)nc3C(N)=O)cn2)C1 10 to 100 nM

Query the reported IC50 for wt human TYK2, catalytic site (Homo sapiens, UniProt P29597); item: NC(=O)c1nn(-c2c(Cl)cccc2Cl)cc1Nc1cn[nH]c1 100 to 1000 nM

Query the reported IC50 for wt human TYK2, catalytic site (Homo sapiens, UniProt P29597); item: Cc1nnnn1-c1ccc(Nc2nn(-c3c(Cl)cccc3Cl)nc2C(N)=O)nc1 10 to 100 nM

Query the reported IC50 for wt human TYK2, catalytic site (Homo sapiens, UniProt P29597); item: NC(=O)c1nn(-c2c(Cl)cccc2Cl)cc1Nc1ccc(C(=O)N2CC[C@@H](N3CCCC3)C2)cc1 10 to 100 nM

Query the reported IC50 for wt human TYK2, catalytic site (Homo sapiens, UniProt P29597); item: NC(=O)c1nn(-c2c(F)cccc2Cl)cc1Nc1ccc(C(=O)N2CC3(CCC3)C2)cc1 10 to 100 nM

Query the reported IC50 for wt human TYK2, catalytic site (Homo sapiens, UniProt P29597); item: CN1CCC(N(C)C(=O)c2ccc(Nc3cn(-c4c(Cl)ccc(F)c4Cl)nc3C(N)=O)cc2)CC1 10 to 100 nM

Query the reported IC50 for wt human TYK2, catalytic site (Homo sapiens, UniProt P29597); item: NC(=O)c1nn(-c2c(Cl)cccc2Cl)nc1Nc1ccc(C(=O)N2CC(O)C2)cn1 10 to 100 nM
